I'd be grateful if you could share measured molar heat capacity at constant pressure for these entries.
ASSAY_METHOD_TEXT: molar heat capacity at constant pressure
ASSAY_SETUP: 333.15 K; 101.33 kPa; Liquid; DSC
± gives the expanded uncertainty stated by the source.

For CCCCn1cc[n+](C(CC)CC)c1.O=S(=O)([N-]S(=O)(=O)C(F)(F)F)C(F)(F)F , what is its reported molar heat capacity at constant pressure?
723.9 ± 28 J/K/mol

Another compound: CCCC[n+]1ccn(C2CCCC2)c1.O=S(=O)([N-]S(=O)(=O)C(F)(F)F)C(F)(F)F
678.41 ± 26 J/K/mol

Another compound: CCCCn1cc[n+](CCC(C)C)c1.O=S(=O)([N-]S(=O)(=O)C(F)(F)F)C(F)(F)F
712.68 ± 28 J/K/mol

Another compound: CCCCC[n+]1ccn(CCCC)c1.O=S(=O)([N-]S(=O)(=O)C(F)(F)F)C(F)(F)F
713.4 ± 28 J/K/mol

###

ASSAY_SETUP: 333.15 K; 101.33 kPa; Liquid; Sing-around technique in a fixed-path interferometer
READOUT: speed of sound (m/s)
Write it as a number; the unit m/s goes unstated.

For CCCCn1cc[n+](CCC(C)C)c1.O=S(=O)([N-]S(=O)(=O)C(F)(F)F)C(F)(F)F , what is its reported speed of sound?
1138.7

Another compound: CCCC[n+]1ccn(C2CCCC2)c1.O=S(=O)([N-]S(=O)(=O)C(F)(F)F)C(F)(F)F
1189.4

Another compound: CCCCC[n+]1ccn(CCCC)c1.O=S(=O)([N-]S(=O)(=O)C(F)(F)F)C(F)(F)F
1135.8

Another compound: CCCCn1cc[n+](C(CC)CC)c1.O=S(=O)([N-]S(=O)(=O)C(F)(F)F)C(F)(F)F
1133.6

###

I'd be grateful if you could share measured speed of sound for these entries.
ASSAY_SETUP: 291.15 K; 101.33 kPa; Liquid; Sing-around technique in a fixed-path interferometer
Write it as a number; the unit m/s goes unstated.

For CCCCn1cc[n+](C(CC)CC)c1.O=S(=O)([N-]S(=O)(=O)C(F)(F)F)C(F)(F)F , what is its reported speed of sound?
1228.9

Another compound: CCCCn1cc[n+](CCC(C)C)c1.O=S(=O)([N-]S(=O)(=O)C(F)(F)F)C(F)(F)F
1234.1

Another compound: CCCC[n+]1ccn(C2CCCC2)c1.O=S(=O)([N-]S(=O)(=O)C(F)(F)F)C(F)(F)F
1288.1

Another compound: CCCCC[n+]1ccn(CCCC)c1.O=S(=O)([N-]S(=O)(=O)C(F)(F)F)C(F)(F)F
1230

###

ASSAY_SETUP: 293.15 K; 101.33 kPa; Liquid; Vibrating tube method
I'd be grateful if you could share measured mass density for these entries.
Write it as a number; the unit kg/m3 goes unstated.

For CCCCCC[n+]1ccn(C)c1.O=S(=O)([N-]S(=O)(=O)C(F)(F)F)C(F)(F)F , what is its reported mass density?
1377.1

Another compound: CCCCn1cc[n+](CCC(C)C)c1.O=S(=O)([N-]S(=O)(=O)C(F)(F)F)C(F)(F)F
1322.6

Another compound: CCCCn1cc[n+](C(CC)CC)c1.O=S(=O)([N-]S(=O)(=O)C(F)(F)F)C(F)(F)F
1324

Another compound: CCCCC[n+]1ccn(CCCC)c1.O=S(=O)([N-]S(=O)(=O)C(F)(F)F)C(F)(F)F
1321.9

Another compound: CCCC[n+]1ccn(C2CCCC2)c1.O=S(=O)([N-]S(=O)(=O)C(F)(F)F)C(F)(F)F
1379.4

###

ASSAY_SETUP: 341.15 K; 101.33 kPa; Liquid; Sing-around technique in a fixed-path interferometer
I'd be grateful if you could share measured speed of sound for these entries.
Write it as a number; the unit m/s goes unstated.

For CCCC[n+]1ccn(C2CCCC2)c1.O=S(=O)([N-]S(=O)(=O)C(F)(F)F)C(F)(F)F , what is its reported speed of sound?
1171.7

Another molecule: CCCCn1cc[n+](CCC(C)C)c1.O=S(=O)([N-]S(=O)(=O)C(F)(F)F)C(F)(F)F
1121.5

Another molecule: CCCCC[n+]1ccn(CCCC)c1.O=S(=O)([N-]S(=O)(=O)C(F)(F)F)C(F)(F)F
1118.8

Another molecule: CCCCn1cc[n+](C(CC)CC)c1.O=S(=O)([N-]S(=O)(=O)C(F)(F)F)C(F)(F)F
1116.6

###

ASSAY_METHOD_TEXT: molar heat capacity at constant pressure
ASSAY_SETUP: 330.15 K; 101.33 kPa; Liquid; DSC
READOUT: molar heat capacity at constant pressure (J/K/mol)
Write it as a number; the unit J/K/mol goes unstated.

For CCCCn1cc[n+](C(CC)CC)c1.O=S(=O)([N-]S(=O)(=O)C(F)(F)F)C(F)(F)F , what is its reported molar heat capacity at constant pressure?
721.72

Another compound: CCCC[n+]1ccn(C2CCCC2)c1.O=S(=O)([N-]S(=O)(=O)C(F)(F)F)C(F)(F)F
675.95

Another compound: CCCCn1cc[n+](CCC(C)C)c1.O=S(=O)([N-]S(=O)(=O)C(F)(F)F)C(F)(F)F
710.4

Another compound: CCCCC[n+]1ccn(CCCC)c1.O=S(=O)([N-]S(=O)(=O)C(F)(F)F)C(F)(F)F
711.07

###

ASSAY_METHOD_TEXT: molar heat capacity at constant pressure
ASSAY_SETUP: 348.15 K; 101.33 kPa; Liquid; DSC
Numbers after ± are expanded uncertainties.
I'd be grateful if you could share measured molar heat capacity at constant pressure for these entries.
Quick note: unit goes after the number.

For CCCCn1cc[n+](C(CC)CC)c1.O=S(=O)([N-]S(=O)(=O)C(F)(F)F)C(F)(F)F , what is its reported molar heat capacity at constant pressure?
734.79 ± 28 J/K/mol

Another molecule: CCCCC[n+]1ccn(CCCC)c1.O=S(=O)([N-]S(=O)(=O)C(F)(F)F)C(F)(F)F
724.47 ± 28 J/K/mol

Another molecule: CCCC[n+]1ccn(C2CCCC2)c1.O=S(=O)([N-]S(=O)(=O)C(F)(F)F)C(F)(F)F
690.11 ± 27 J/K/mol

Another molecule: CCCCn1cc[n+](CCC(C)C)c1.O=S(=O)([N-]S(=O)(=O)C(F)(F)F)C(F)(F)F
724.28 ± 28 J/K/mol

###

I'd be grateful if you could share measured molar heat capacity at constant pressure for these entries.
ASSAY_METHOD_TEXT: molar heat capacity at constant pressure
ASSAY_SETUP: 304.15 K; 101.33 kPa; Liquid; DSC
Write it as a number; the unit J/K/mol goes unstated.

For CCCC[n+]1ccn(C2CCCC2)c1.O=S(=O)([N-]S(=O)(=O)C(F)(F)F)C(F)(F)F , what is its reported molar heat capacity at constant pressure?
656.21

Another compound: CCCCC[n+]1ccn(CCCC)c1.O=S(=O)([N-]S(=O)(=O)C(F)(F)F)C(F)(F)F
691.38

Another compound: CCCCn1cc[n+](C(CC)CC)c1.O=S(=O)([N-]S(=O)(=O)C(F)(F)F)C(F)(F)F
701.22

Another compound: CCCCn1cc[n+](CCC(C)C)c1.O=S(=O)([N-]S(=O)(=O)C(F)(F)F)C(F)(F)F
689.91

###

ASSAY_SETUP: 303.15 K; 101.33 kPa; Liquid; Sing-around technique in a fixed-path interferometer
I'd be grateful if you could share measured speed of sound for these entries.
Write it as a number; the unit m/s goes unstated.

For CCCCn1cc[n+](CCC(C)C)c1.O=S(=O)([N-]S(=O)(=O)C(F)(F)F)C(F)(F)F , what is its reported speed of sound?
1205.8

Another compound: CCCC[n+]1ccn(C2CCCC2)c1.O=S(=O)([N-]S(=O)(=O)C(F)(F)F)C(F)(F)F
1259

Another compound: CCCCn1cc[n+](C(CC)CC)c1.O=S(=O)([N-]S(=O)(=O)C(F)(F)F)C(F)(F)F
1200.4

Another compound: CCCCC[n+]1ccn(CCCC)c1.O=S(=O)([N-]S(=O)(=O)C(F)(F)F)C(F)(F)F
1202.1

###

ASSAY_METHOD_TEXT: molar heat capacity at constant pressure
ASSAY_SETUP: 305.15 K; 101.33 kPa; Liquid; DSC
I'd be grateful if you could share measured molar heat capacity at constant pressure for these entries.
Write it as a number; the unit J/K/mol goes unstated.

For CCCC[n+]1ccn(C2CCCC2)c1.O=S(=O)([N-]S(=O)(=O)C(F)(F)F)C(F)(F)F , what is its reported molar heat capacity at constant pressure?
657.01

Another compound: CCCCn1cc[n+](CCC(C)C)c1.O=S(=O)([N-]S(=O)(=O)C(F)(F)F)C(F)(F)F
690.67

Another compound: CCCCn1cc[n+](C(CC)CC)c1.O=S(=O)([N-]S(=O)(=O)C(F)(F)F)C(F)(F)F
701.89

Another compound: CCCCC[n+]1ccn(CCCC)c1.O=S(=O)([N-]S(=O)(=O)C(F)(F)F)C(F)(F)F
692.05
